Test system: HTLV-1 LTR promoter transactivation by HTLV-1 Tax
Assay: Transactivation assay, HTLV-1 LTR luciferase reporter with HTLV-1 Tax
Format: cell-based
Details: HEK293 cells co-transfected with pHTLV1LTR-Luc, HTLV-1 Tax and the human ORF; relative luciferase activity 24 h post-transfection; positive if >=2 or <=0.5 and p<0.05
Consider the following molecules; for each one, report its HTLV_LTR transactiv..
Give bare numbers, in fold change.

# molecule, HTLV_LTR transactiv. / fold change
rows = [
    ("FATE1: human host interactor protein, Gene ID 89885, expressed from transfected ORF vector (protein) MAGGPPNTKAEMEMSLAEELNHGRQGENQEHLVIAEMMELGSRSRGASQKKQKLEQKAAGSASAKRVWNMTATRPKKMGSQLPKPRMLRESGHGDAHLQEYAGNFQGIRFHYDRNPGTDAVAQTSLEEFNVLEMEVMRRQLYAVNRRLRALEEQGATWRHRETLIIAVLVSASIANLWLWMNQ", 0.49),
]

# input for lookup
Any idea what HTLV_LTR transactiv. was measured for LENG1: human host interactor protein, Gene ID 79165, expressed from transfected ORF vector (protein) MNILPKKSWHVRNKDNVARVRRDEAQAREEEKERERRVLLAQQEARTEFLRKKARHQNSLPELEAAEAGAPGSGPVDLFRELLEEGKGVIRGNKEYKEEKRQEKERQEKALGILTYLGQSAAEAQTQPPWYQLPPGRGGPPPGPAPDEKIKSRLDPLREMQKHLGKKRQHGGDEGSRSRKEKEGSEKQRPKEPPSLDQLRAERLRREAAERSRAEALLARVQGRALQEGQPEEDETDDRRRRYNSQFNPQLARRPRQQDPHLTH ?
0.34
